assay: HepG2 cell viability effects, profiling panel, calcein-AM fluorescence, 48 h, basal (AID 1164); settings: higher = more signal; also: test concentration not given here
Recorded z-score by entry
Reply briefly: the number, and no unit.

Here's what some known entries look like.
COCCOC(=O)N1C(=O)[C@@]2(c3cc(C#Cc4ccc(OC)cc4)ccc31)[C@H](c1ccc(O)cc1)N1[C@H](c3ccccc3)[C@H](c3ccccc3)OC(=O)[C@H]1[C@@H]2C(=O)N1CCCCCCC1 = -0.261
CCCCN1CC=CC23O[C@@H]4/C=C\CCC(C)OC(=O)C4[C@H]2C(=O)N(C(CO)C(C)C)[C@@H]3C1=O (some centres undefined) = 0.519
Cc1cc(C)c(C(O)C2C=CC3C(=O)N(c4ccccc4)C(=O)C3N2Nc2ccc(C(C)C)cc2)c(C)c1 (centres undefined) = 0.273

Consider the record given below.
IN: Which z-score is reported for this compound? "C=C(C(=O)CC[C@@H](OC(C)=O)c1ccc(CO)o1)C(C)C"
OUT: -0.261

---

molecular target: Luciferin 4-monooxygenase (Photinus pyralis); assay: firefly luciferase enzyme inhibitors, primary screen, biochemical, luminescence, purified enzyme, 2006 set (AID 1141); details: SteadyGlo luminescence, 30 min, higher = more signal, called active from +8 up or from −8 down;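 also: cell-free assay with purified firefly luciferase at 100 ng per well in PBS; test concentration not given here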
# binning rule on z-score: interval 1 = under -1, interval 2 = from -1 up to -0.1, interval 3 = -0.1 and over

The examples below pair each entry with its known result.
O=C1O[C@H](c2ccccc2)[C@H](c2ccccc2)N2[C@H]1[C@@H](C(=O)NC[C@H](O)c1ccccc1)[C@]1(C(=O)Nc3ccc(C#CCCO)cc31)[C@H]2c1ccc(OCCO)cc1 = interval 1
COc1ccccc1CN1C(=O)c2ccccc2[C@](Cc2ccccc2I)(C(=O)NCC(F)(F)F)[C@@H]1c1ccc(CO)cc1 = interval 3
COC(=O)[C@H](Cc1ccccc1)N1CC(/C=C/C2CC2)=C[C@H]1[C@H](O)Cc1ccccc1 = interval 2
N#Cc1ccc(C(O)C2C=CC3C(=O)N(c4ccccc4)C(=O)C3N2Nc2ccccc2)cc1 (centres undefined) = interval 1
CC(CO)N1C(=O)[C@@H]2[C@H]3C(=O)OCC=C[C@H]3OC23C=CCN(CCN2CCOCC2)C(=O)[C@@H]13 (some centres undefined) = interval 2
CCOC(=O)C[C@H]1[C@H](OC(=O)c2cc3ccccc3oc2=O)[C@@H](NC(=O)c2ccc(-c3ccccc3)cc2)c2cc(OCCCO)ccc2N1C(=O)c1ccccc1 = interval 3
C=C(C(=O)CC[C@@H](OC(C)=O)c1ccc(CO)o1)C(C)C = interval 1
C=CCC(OC(C)=O)[C@@H]1[C@@H](N(Cc2cc3ccccc3o2)C(=O)c2ccc(-c3ccccc3)cc2)c2cc(OCCCO)ccc2N1C(=O)c1ccc2ccccc2c1 (some centres undefined) = interval 2
CN1C(=O)C2C=CC(C(O)C#Cc3ccccc3)N(Nc3ccccc3)C2C1=O (centres undefined) = interval 1
O=C1C=C(c2ccccc2)C(=O)c2ccc([C@H]3Oc4ccccc4S(=O)(=O)N4CCC[C@@H]34)cc21 = interval 1

IN: Entry "CCCNC(=O)[C@@]1(c2ccc([N+](=O)[O-])cc2)CC(=O)N(C2CCCCC2)[C@@H]1c1ccc(CO)cc1" belongs to which category?
OUT: interval 2

---

assay: basal MM1S mitochondrial membrane potential changes, profiling panel, cell-based, JC-1 fluorescence, 24 h, 100 nL compound (AID 1170); conditions: higher = more signal; also: test concentration not given here
Definition: the class of an entry is the range in bottom bin (below -0.9), middle bin (-0.9 to below -0.2), top bin (-0.2 or more) that contains its z-score.

CC1CC/C=C\[C@H]2OC34C=CCN(c5ccc(Cl)cc5)C(=O)[C@H]3N(CCCCCO)C(=O)[C@]4(C)C2C(=O)O1 (some centres not stated) = top bin
CN(C)CCCNC(=O)[C@@]1(C)c2ccccc2C(=O)N(Cc2ccccc2)[C@H]1c1ccc(CO)cc1 = top bin
COc1ccccc1CN1C(=O)c2ccccc2[C@](Cc2ccccc2I)(C(=O)NCC(F)(F)F)[C@@H]1c1ccc(CO)cc1 = top bin
CCCCC(O)C1C=CC2C(=O)N(c3ccccc3)C(=O)C2N1Nc1ccc(C(C)C)cc1 (configuration not stated) = middle bin
O=C1C2C=CC(C(O)c3ccc(Br)cc3)N(Nc3ccccc3F)C2C(=O)N1c1ccccc1 (configuration not stated) = bottom bin
CC(C)N1C(=O)C[C@@](C(=O)NCCCN(C)C)(c2ccc([N+](=O)[O-])cc2)[C@H]1c1ccc(CO)cc1 = top bin
CCCCCCCCCCC(O)C1C=CC2C(=O)N(C)C(=O)C2N1NC(=O)OC(C)(C)C (configuration not stated) = bottom bin
COc1cc(OC)c(C(O)C2C=CC3C(=O)N(c4ccccc4)C(=O)C3N2Nc2ccccc2)cc1Br (configuration not stated) = middle bin
C=C(CCCC)/C(=C/C[C@@H](OC(=O)c1ccncc1)c1ccccc1OCCO)c1cnc2ccccc2c1 = top bin
CCOC(=O)C[C@H]1[C@H](OC(=O)Cc2ccc3c(c2)OCO3)[C@@H](NC(=O)Cc2ccc(OC)cc2)c2cc(OCCCO)ccc2N1C(=O)c1ccc2ccccc2n1 = top bin

Turning now to a further molecule:
IN: Lab log: "COc1ccc([Si](C)(C)[C@H]2[C@H](CCO)O[C@@]3(C(=O)N(Cc4cccc(N5C(=O)COc6ccccc65)c4)c4ccccc43)[C@@H]2C)cc1" — assign z-score category
OUT: bottom bin

---

Reported composite z-score is given for each of the following compounds.
molecular target: Torsin-1A-interacting protein 1 (Homo sapiens) (UniProt Q5JTV8); test: LAP1 binders from COS7 cell lysate, primary screen, small-molecule microarray, 635/667 nm fluorescence (AID 1116); settings: COS7-hLAP1 lysate binding, 635 nm fluorescence, higher = more signal
Sequence (Q5JTV8 whole entry, looked up): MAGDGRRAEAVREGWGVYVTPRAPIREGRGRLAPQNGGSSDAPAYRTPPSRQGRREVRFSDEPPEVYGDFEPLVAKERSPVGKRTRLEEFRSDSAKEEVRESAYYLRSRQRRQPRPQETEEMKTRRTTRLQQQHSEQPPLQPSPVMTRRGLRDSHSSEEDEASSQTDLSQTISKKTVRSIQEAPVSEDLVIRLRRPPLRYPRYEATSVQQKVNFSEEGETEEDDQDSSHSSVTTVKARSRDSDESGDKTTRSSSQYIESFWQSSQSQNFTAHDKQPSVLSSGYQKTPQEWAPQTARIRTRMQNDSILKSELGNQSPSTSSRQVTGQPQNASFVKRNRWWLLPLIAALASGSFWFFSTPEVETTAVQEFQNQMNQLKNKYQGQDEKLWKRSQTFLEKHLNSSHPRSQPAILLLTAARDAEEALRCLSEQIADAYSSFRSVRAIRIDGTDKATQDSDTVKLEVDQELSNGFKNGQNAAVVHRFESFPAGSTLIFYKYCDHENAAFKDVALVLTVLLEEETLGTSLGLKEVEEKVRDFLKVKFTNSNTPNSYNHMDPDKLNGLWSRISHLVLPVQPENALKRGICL
Respond using a number only.

Consider the following illustrative entries.
CCOC(=O)C1=CC[C@@H](c2ccc(OCc3ccccc3)c(OC)c2)N(S(=O)(=O)c2ccc(C)cc2)[C@H]1c1ccc(SC)cc1 = 0.746
C=CCN1C(=O)[C@@]2(O[C@@H](CCn3cc([C@H](O)c4ccccc4)nn3)[C@H]([Si](C)(C)c3ccc(OC)cc3)[C@H]2C)c2cc(N3CCC3=O)ccc21 = 0.116

// moving on: another record for composite z-score
IN: Give the reported composite z-score for "COC(=O)[C@@]1(Cc2ccc(OC)cc2)[C@H]2c3cc(C(=O)N(C)C)n(Cc4ccc(Cl)c(C(F)(F)F)c4)c3C[C@H]2CN1C(=O)c1ccccc1" (system: Torsin-1A-interacting protein 1 (Homo sapiens) (UniProt Q5JTV8)).
OUT: 0.535

---

Documented z-score across a set of compounds
experiment: PSAC antagonists in infected red cells, primary screen, cell-based, P. falciparum Indochina, OD700, 2 h (AID 1155);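 also: lysis reports solute entry through the parasite surface anion channel PSAC; channel blockers reduce lysis of infected cells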; settings: P. falciparum Indochina infected erythrocytes, osmotic lysis OD700; higher = more signal, called active from +8 up or from −8 down
Just the number, please, no unit after it.

Solved cases (6 shown):
C=CCNC(=O)[C@H]1[C@@H]2C(=O)O[C@@H](c3ccccc3)[C@@H](c3ccccc3)N2[C@@H](c2ccc(O)cc2)[C@]12C(=O)N(C(=O)OCCOC)c1ccccc12 = 0.481
O=C(NCC(F)(F)F)[C@@H]1c2ccccc2C(=O)N(Cc2ccccc2C(F)(F)F)[C@H]1c1ccc(CO)cc1 = 0.478
C=CCC(OC(C)=O)[C@@H]1[C@@H](N(Cc2cc3ccccc3o2)C(=O)Cc2ccc(F)cc2)c2cc(OCCCO)ccc2N1C(=O)c1ccc2ccccc2c1 (some centres not stated) = 0.305
C=C(C)[C@@H]1CC=C(C(O)C2C=CC3C(=O)N(c4ccccc4)C(=O)C3N2Nc2ccccc2F)CC1 (some centres not stated) = 1.01
CC(CO)N1C(=O)[C@@H]2[C@H]3C(=O)OCC=C[C@H]3OC23C=CCN(C(C)(C)C)C(=O)[C@@H]13 (some centres not stated) = -0.0471
COc1cc(OC)c(C(O)C2C=CC3C(=O)N(c4ccccc4)C(=O)C3N2Nc2ccccc2)cc1Br (configuration not stated) = 5.27

Shifting focus to the compound that follows.
IN: Endpoint output: z-score of "C=C(/C(=C/C[C@H](OC(C)=O)c1cccc(OCCO)c1)c1cnc2ccccc2c1)C(C)C" . Value?
OUT: 3.44

---

assay: FRG1 promoter luciferase signal modulators, primary screen, FRG1 inhibition for FSHD, cell-based, C2C12 myotubes, firefly/Renilla luciferase, luminescence (AID 1084); details: higher = more signal, called active from +8 up or from −8 down
// reported z-score per item
Number only, please.

Past entries and their recorded results:
COc1cc(OC)c(C(O)C2C=CC3C(=O)N(C)C(=O)C3N2NC(=O)OC(C)(C)C)cc1Br (stereo unspecified) = -0.612
COC(=O)C(CC#Cc1ccc2c(c1)[C@]1(C(=O)N2)[C@H](c2ccccc2OCCO)N2[C@H](c3ccccc3)[C@H](c3ccccc3)OC(=O)[C@H]2[C@@H]1C(=O)NC[C@H](O)c1ccccc1)C(=O)OC = -1.42
COC(=O)[C@H](Cc1ccccc1)N1CC(/C=C/C2CC2)=C[C@H]1[C@H](O)Cc1ccccc1 = -2.56
COC(=O)[C@@]1(Cc2ccc(F)cc2)[C@H]2c3cc(C(=O)N(C)C)n(Cc4cc(F)cc5c4OCOC5)c3C[C@H]2CN1C(=O)c1ccccc1 = -1.82

IN: So what does the record say about z-score for CN1C(=O)C2C=CC(C(O)c3cccc(O)c3)N(Nc3ccccc3)C2C1=O (stereo unspecified) ?
OUT: 0.737

IN: Query: z-score; subject: "C=CCOC(=O)[C@H]1[C@@H]2C(=O)O[C@@H](c3ccccc3)[C@@H](c3ccccc3)N2[C@@H](c2ccc(OCCOC(=O)[C@@H]3C[C@@H]4C(=O)N[C@@H](CCCCN(C)C)C(=O)N4[C@@H]3c3ccc(O)cc3)cc2)[C@]12C(=O)Nc1ccccc12"
OUT: 0.585

Cited source for all entries: PubChem BioAssay
